system: OVCAR-4; assay: NCI tumour cell line growth inhibition, 48 h
Activity calls are given as the source filed them. Rule as the data show it: active = GI50 up to about 1.1 µM and inactive = higher.
Pick from Y = active, N = inactive when you respond.

// param item: `O=C(CSc1nc(-c2ccccc2)c(-c2ccccc2)[nH]1)N/N=C/c1ccc([N+](=O)[O-])cc1` ; yields the recorded call
N

// param item: `Cn1c(=O)nc2n(-c3ccc(Br)cc3)c3ccccc3nc-2c1=O` ; yields the recorded call
N

// param item: COc1ccc(/C=C2\CCC(CCN3CCOCC3)C2=O)cc1 (stereo unspecified) ; yields the recorded call
N

// param item: `CC[C@H](CO)Nc1nc(NCc2ccccc2)c2ncn(C(C)C)c2n1` ; yields the recorded call
N

====

system: ACHN; assay: NCI tumour cell line growth inhibition, 48 h
The source made the active and inactive calls. Cut-off read from the data, not from the text of the source: active = GI50 up to about 1.1 µM and inactive = higher.
PROPERTY MEASURED: GI50

Example entries begin here.
CC(C)N(C(=O)C12C3C4C5(C#N)C3C1(C#N)C5C42C#N)C(C)C (stereo not given); > 100 µM (inactive)
CC1=CC(=O)c2ccc(C)cc2C1=O [CHIMAPHILIN]; 7.45 µM (inactive)
CCCCc1c2c(nc3c1CCCC3=O)CCCC2; > 100 µM (inactive)

I am curious: what GI50 value has been reported for `Cc1ccc(C[N+](C)(C)N)cc1C` ?
> 10 µM (inactive)

I am curious: what GI50 value has been reported for `O=C(CCc1nnc(S)[nH]1)Nc1cccc(C(F)(F)F)c1` ?
> 100 µM (inactive)

I am curious: what GI50 value has been reported for O=C1C(C(O)(C(F)(F)Cl)C(F)(F)Cl)CCCC1C(O)(C(F)(F)Cl)C(F)(F)Cl (stereo not given) ?
> 10 µM (inactive)

I am curious: what GI50 value has been reported for `Cc1ccc([N+](=O)[O-])cc1NC(=O)C(=O)Cc1cc(=O)oc2cc(O)ccc12` ?
> 100 µM (inactive)

I am curious: what GI50 value has been reported for `CCOC(=O)C(=[N+]=[N-])C(=O)Nc1nn2nnnc2c2ccccc12` ?
> 100 µM (inactive)

I am curious: what GI50 value has been reported for O=C1NN=C(c2c[nH]c3ccccc23)CC1NCc1ccccc1 (stereo not given) ?
> 100 µM (inactive)

I am curious: what GI50 value has been reported for `COc1cccc2nc3ccccc3nc12` ?
25.3 µM (inactive)

====

system: DLD-1; assay: NCI tumour cell line growth inhibition, 48 h
The source made the active and inactive calls. No stated cut-off is given here; in the data, active = GI50 up to about 1.1 µM and inactive = higher.
PROPERTY MEASURED: GI50

I am curious: what GI50 value has been reported for `Cc1[nH]c2ccccc2c1CC/C(=N\Nc1ccccc1)c1ccccc1` ?
> 100 µM (inactive)

====

system: A549; assay: NCI tumour cell line growth inhibition, 48 h
Activity calls are given as the source filed them. Rule as the data show it: active = GI50 up to about 1.1 µM and inactive = higher.
PROPERTY MEASURED: GI50

CC(C)CCC[C@@H](C)[C@H]1CC[C@H]2[C@@H]3CC=C4CC(OCCCCN(O)CCCSC5OC(CO)C(O)C(O)C5O)CC[C@]4(C)[C@H]3CC[C@]12C (stereo partly drawn); 42.2 µM (inactive)
CCCCCCCC(=O)OC[n+]1cccc(-c2c(COC(=O)NC(C)C)c(COC(=O)NC(C)C)c3n2CCC3)c1; > 96.2 µM (inactive)
O=C1NN=C(c2c[nH]c3ccccc23)CC1NCc1ccccc1 (stereo not drawn); > 100 µM (inactive)
CCOC(=O)C1(Cc2ccc3c(c2)CCC3)Cc2cc3c(cc2C1)CCC3; 35.9 µM (inactive)
O=C1C(Cl)N(c2cccc([N+](=O)[O-])c2)C1c1c[nH]c2ccccc12 (stereo not drawn); 22.1 µM (inactive)
CCOC(=O)/C(=C/c1ccc(OC)c(OC)c1)C(=O)c1ccccc1; 28.2 µM (inactive)
CCCCCCCCCCOC1C(C(C)OCCCN(C)C)OC2OC3(CCCCC3)OC21 (stereo not drawn); 15.4 µM (inactive)

# evaluate next
I am curious: what GI50 value has been reported for `COc1ccc2c(c1)c1c(n2CCN2CCOCC2)-c2ccccc2CC1` ?
30.8 µM (inactive)
